# TEST_TARGET: T1, human programmed cell death protein 1 (hPD-1) C93S (aa 24-167) (Homo sapiens, UniProt Q15116, C93S)
# T1 construct: made as a fusion with a TEV site and human Fc; the Fc was cut off with TEV protease; source: Expi293F, purified (Protein A, TEV cleavage of Fc, SEC; monomer fractions); not shown: Fc (human), C-terminal, cleaved
# T1 sequence (Q15116 24-167 C93S): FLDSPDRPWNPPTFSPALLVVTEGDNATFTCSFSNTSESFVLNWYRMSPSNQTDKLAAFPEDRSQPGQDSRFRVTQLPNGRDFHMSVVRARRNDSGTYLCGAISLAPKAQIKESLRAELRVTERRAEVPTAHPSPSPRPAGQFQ
# EXPERIMENT_SUMMARY: SPR; Carterra LSA; Fab from the ammonium sulfate precipitate of the culture supernatant immobilised on a NiHC200M chip; hPD-1 (1-1024 nM) or mPD-1-Fc (4-1024 nM) as analyte, fourfold dilution series, no regeneration; HBS-EP pH 7.4, 25 °C; medians over the spots of a construct, KD = koff/kon
# RECORDED_CONDITIONS: one partner purified
pKd: −log10 of the molar value.
REPORTED_PROPERTY: pKd

Record toripalimab Fab L.N58Y (Fab, V domains shown, as the heavy chain of Sm3; light chain of Sm3 with this change; numbers count from the chain's first residue; source: Brevibacillus, culture supernatant (ammonium sulfate precipitate); not shown: 6xHis, C-terminal, kept; 6xHN, C-terminal, kept) VH: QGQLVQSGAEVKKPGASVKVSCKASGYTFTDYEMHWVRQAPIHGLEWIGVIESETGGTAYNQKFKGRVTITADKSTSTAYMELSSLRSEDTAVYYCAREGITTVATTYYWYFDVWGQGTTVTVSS VL: DVVMTQSPLSLPVTLGQPASISCRSSQSIVHSNGNTYLEWYLQKPGQSPQLLIYKVSYRFSGVPDRFSGSGSGTDFTLKISRVEAEDVGVYYCFQGSHVPLTFGQGTKLEIK , field pKd: > 8.79

For toripalimab Fab L.V99E (Fab, V domains shown, as the heavy chain of Sm3; light chain of Sm3 with this change; numbers count from the chain's first residue; source: Brevibacillus, culture supernatant (ammonium sulfate precipitate); not shown: 6xHis, C-terminal, kept; 6xHN, C-terminal, kept) VH: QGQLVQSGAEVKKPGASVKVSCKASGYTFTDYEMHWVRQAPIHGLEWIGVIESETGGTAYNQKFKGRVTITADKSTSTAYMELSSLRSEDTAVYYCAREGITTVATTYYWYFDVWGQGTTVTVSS VL: DVVMTQSPLSLPVTLGQPASISCRSSQSIVHSNGNTYLEWYLQKPGQSPQLLIYKVSNRFSGVPDRFSGSGSGTDFTLKISRVEAEDVGVYYCFQGSHEPLTFGQGTKLEIK the binder record lists pKd as > 8.99
